The values you see were collected from PubChem BioAssay (NCI).

- Test system: SF-539 CNS
- experiment_summary: NCI tumour cell line growth inhibition, 48 h
Would you mind telling me the reported TGI of each entry?

Recorded TGI for `CC(C)(CCl)NC(=O)c1cccc(C(=O)NC(C)(C)CCl)n1` , please?
> 100 µM

Now the same for O=C(O[C@H]1[C@@H]2C=CO[C@@H](OC3OC(CO)C(O)C(O)C3O)[C@@H]2[C@@]2(CO)O[C@@H]12)c1ccc(O)c(O)c1 (some centres not stated)
> 100 µM

Now the same for `Nc1ncnc2c1ncn2[C@@H]1O[C@H](COP(=O)(O)OP(=O)(O)OC[C@H]2O[C@@H](OCCCO)[C@H](O)[C@@H]2O)[C@@H](O)[C@H]1O`
> 100 µM

Now the same for `Fc1ccc(-c2ncn(CCCN3CCOCC3)c2-c2ccncc2)cc1`
> 25 µM

Now the same for `O=C(O)/C=C/c1ccc(OS(=O)(=O)O)cc1`
> 100 µM

Now the same for `CSc1nc(-c2ccccc2)nc(C(C#N)C#N)n1`
> 100 µM

Now the same for O=[N+]([O-])c1cccc(C2=NN(c3ccccc3)C3c4ccccc4OCC23)c1 (configuration not stated)
> 100 µM

Now the same for CC(C)=NOC(=O)OC[C@H]1O[C@@H](n2cnc3c(N)ncnc32)C(O)C1O (some centres not stated)
> 100 µM

Now the same for `C1=CCC[C@@H]2CN3CCCC/C=C\CCCC[C@H]4C[C@H](CN(CCCCCCCC1)C4)[C@H]2CC3`
14.9 µM

Now the same for `Cc1ccc2[nH]c(O)c(N=Nc3ccccc3[N+](=O)[O-])c2c1`
4.78 µM

Now the same for `CCn1c(SCC(=O)Nc2cc(C(F)(F)F)ccc2Cl)nc2ccccc2c1=O`
> 100 µM

Now the same for `C=CCn1c(=O)c(Br)nn(CCOCP(=O)(OCC)OCC)c1=O`
> 100 µM

---

- Test system: 786-0 renal
- experiment_summary: NCI tumour cell line growth inhibition, 48 h
Would you mind telling me the reported GI50 of each entry?

Recorded GI50 for CCCCC(OC(=O)c1ccc(N)cc1)C(=O)Nc1nc(CC(=O)OCC)cs1 (centres undefined) , please?
53.6 µM

Now the same for `COc1cc2c(cc1O)c(=O)n(CCN(C)C)c1c3cc4c(cc3ncc21)OCO4`
< 0.01 µM

Now the same for `CC[O-].CC[O-].O=C([CH-]C(=O)c1ccccc1)CCCCCCC(=O)[CH-]C(=O)c1ccccc1.[Ti+4]`
> 100 µM

Now the same for `CC1=C2[C@@H](CC1)[C@]1(C)O[C@@](C(C)C)(C[C@H]1OC(=O)CO)[C@H]2OC(=O)CCCc1ccccc1`
13.1 µM

---

- Test system: KM20L2 colon
- experiment_summary: NCI tumour cell line growth inhibition, 48 h
endpoint: TGI

Recorded TGI for `N#CC1(N2CCCC2)CCC2(CC1)OCCO2` , please?
> 100 µM

Now the same for `COc1ccc(-c2cc(=O)c3cc(Cl)ccc3[nH]2)cc1`
> 100 µM

Now the same for `C=CCCCN1CCCCC1=S`
> 100 µM

Now the same for Cc1[nH]c2ccccc2c1C1=NO/C(=N\O)C(c2c(C)[nH]c3ccccc23)C1 (stereo not given)
50.5 µM

Now the same for `COc1ccc(C[C@]23CCC(=O)N2CCc2cc(OC)c(O)cc23)cc1O`
> 100 µM

Now the same for `CS(=O)(=O)NNS(=O)(=O)c1ccc(F)cc1`
> 100 µM

Now the same for CC[C@@]1(O)C[C@H](OC2CC(N(C)C)C(OC3CC(O)C(OC4CCC(=O)C(C)O4)C(C)O3)C(C)O2)c2c(cc3c(c2O)C(=O)c2c(O)cccc2C3=O)C1C(=O)OC (stereo not given in full)
4.64 µM

Now the same for `C1C[OH+]CCNCC[OH+]CC[OH+]CCN1.N.[Cl-].[Pt+4]`
> 100 µM

Now the same for `O=c1c(C(c2ccc([N+](=O)[O-])cc2)c2c(O)c3ccccc3n(-c3ccccc3)c2=O)c(O)c2ccccc2n1-c1ccccc1`
> 100 µM

Now the same for COC(=O)/C(=N\NC(N)=O)C(C#N)c1ccccc1 (stereo not given)
> 100 µM

---

- Test system: MDA-MB-435
Write down one outcome, taken from true (1) = active, false (0) = inactive

// return assay outcome for COc1ccc(C2CC(c3ccc(OC)cc3O)=NN2c2ccc(S(N)(=O)=O)cc2)cc1 (stereo unspecified)
false (0)

Now the same for `CC[C@H]1CCC/C=C/[C@@H]2C[C@H](O)C[C@H]2[C@H](O)/C=C/C(=O)O1`
true (1)

Now the same for `C#CCOC(=O)/C=C/C(=O)Oc1ccc2c(C)cc(=O)oc2c1`
false (0)

Now the same for `COc1cc2c(/C=C3/C(=O)Nc4ccc(O)cc43)c(Cl)n(Cc3cc(OC)c(OC)c(OC)c3)c2cc1C`
true (1)

Now the same for `CN[C@@H](Cc1cccc2ccccc12)C(=O)N[C@@H](CC(C)C)B(O)O`
true (1)

Now the same for `Cc1nc2ccccc2c(/C=C/c2ccccc2)c1C(=O)/C=C/c1ccc(C(F)(F)F)cc1`
false (0)

Now the same for `CC1=C2[C@@H](CC1)[C@]1(C)O[C@@](C(C)C)(C[C@H]1OC(=O)CO)[C@H]2OC(=O)CCCc1ccccc1`
false (0)

Now the same for `COc1cc2c(c(OC)c1OC)-c1c(c3ccc([N+](=O)[O-])cc3c(=O)n1CCCBr)C2=O`
false (0)

Now the same for `COc1cc2c3c(n(CCCn4cncn4)c(=O)c2cc1OC)-c1cc2c(cc1C3=O)OCO2`
false (0)

Now the same for `O=C(Nc1ccccc1Cl)c1ccc(NC2=C(Cl)C(=O)N(C3CCCCC3)C2=O)cc1`
false (0)

Now the same for `O=C(CCCC(=O)N/N=C/c1cc(Cl)ccc1O)N/N=C\c1cc(Cl)ccc1O`
false (0)

Now the same for `CCn1c(SCC(=O)Nc2cc(C(F)(F)F)ccc2Cl)nc2ccccc2c1=O`
false (0)

Now the same for CC1OC(CC(=O)O)Cc2c1c(O)c1c(O)cc(-c3cc(=O)c4c(=O)c5c(c(=O)c=4c3=O)CC(CC(=O)O)OC5C)c(O)c1c2O (stereo unspecified)
false (0)

Now the same for `Fc1ccc(-c2ncn(CCCN3CCOCC3)c2-c2ccncc2)cc1`
false (0)

Now the same for O=C(c1ccccc1)C1OC1C(=O)c1ccccc1 (stereo unspecified)
false (0)

Now the same for COc1ccc(C2=NN(C(C)=O)C(c3ccc(Oc4ccnc5cc(Cl)ccc45)c(OC)c3)C2)cc1 (stereo unspecified)
false (0)

Now the same for CCN1C(=O)N(CC)C2C1NN=c1s/c(=C\c3ccc(C(F)(F)F)cc3)c(=O)n12 (stereo unspecified)
true (1)

Now the same for `CCCCc1n(Cc2ccc3ccccc3n2)cc[n+]1Cc1ccc2ccccc2n1`
false (0)

Now the same for `O=[N+]([O-])c1ccc(N=Nc2c(Cl)cc(O)cc2Cl)cc1`
false (0)

Now the same for `COC(=O)C1=C(C(=O)ON)[C@@H]2C=C[C@@]1([C@@H](Cc1ccccc1)Nc1ccccc1)O2`
false (0)

Now the same for `O=c1cc(-c2ccccc2)oc2c1ccc1ccccc12`
false (0)

---

Would you mind telling me the reported TGI of each entry?
- System: PC-3 prostate
- experiment_summary: NCI tumour cell line growth inhibition, 48 h

Recorded TGI for `COC(=O)/C=C\C(C#N)(C#N)N=Cc1cccs1` , please?
26 µM

Now the same for CN1c2c(nc(N)[nH]c2=O)NCC1CCNc1ccc(C(=O)NC(CCC(=O)O)C(=O)O)cc1 (stereo not given)
1750 µM

Now the same for CCO[C@H]1O[C@@H]2OC3(C)CCC4[C@H](C)CCC([C@H]1C)[C@]42OO3 (stereo not given in full)
> 100 µM

Now the same for O=C1CCC2(CC1CCS(=O)c1ccccc1)OCCO2 (stereo not given)
> 100 µM

Now the same for O=S1(=O)c2ccccc2N2C(c3ccccc3)=NOC2(c2ccccc2)CC1c1ccc(Br)cc1 (stereo not given)
> 100 µM

Now the same for CC(C)=NOC(=O)OC[C@H]1O[C@@H](n2cnc3c(N)ncnc32)C(O)C1O (stereo not given in full)
> 100 µM

Now the same for CC(C)(C)OC(=O)NCCC1CNc2ccccc21 (stereo not given)
> 100 µM

Now the same for `COc1ccc(C(=O)CCN(C)C)c2ccccc12`
34 µM

Now the same for `COc1ccc(CNCCCN2C(=O)c3ccc4c5c(ccc(c35)C2=O)C(=O)N(CCCNCc2ccc(OC)c(OC)c2OC)C4=O)c(OC)c1OC`
0.293 µM

Now the same for Cc1ccc2[nH]c(C(=O)NN3C(=O)C(C)SC34CCC(C)CC4)c(-c3ccccc3)c2c1 (stereo not given)
46 µM

Now the same for `COc1ccccc1NC(=O)CC(=O)n1nc(C)c(N=Nc2ccccc2Cl)c1C`
> 100 µM

Now the same for Cn1c2ccccc2c2c3c(c4c5ccccc5n(C5OC(CO)C(O)C(O)C5O)c4c21)C(=O)OC3=O (stereo not given)
> 100 µM

Now the same for `[C-]#[N+]C(=C\c1ccc(O)cc1)/C(=C/c1ccc(O)cc1)[N+]#[C-]`
> 26.7 µM

Now the same for CCOC(=O)/C(=C\c1cn(C(C)=O)c2ccccc12)P(C)(=O)OCC (stereo not given)
> 100 µM

Now the same for `COc1ccccc1/C=N/Nc1nnc2c3ccccc3c3ncccc3c2n1`
> 100 µM

Now the same for `CC(=O)Nc1ccc(OC(C)=O)cc1`
> 66.3 µM

Now the same for `CC(C)=Cc1cccc2[nH]c(O)c(N=Nc3ccc(S(N)(=O)=O)cc3)c12`
> 25 µM

Now the same for `CC1(C)N=c2cc3c(cc2N1c1ccc(Cl)cc1)=Nc1ccccc1N3c1ccc(Cl)cc1`
> 100 µM

Now the same for `O=C1NC(=O)C(C(c2ccc([N+](=O)[O-])cc2)C2C(=O)NC(=O)NC2=O)C(=O)N1`
> 100 µM

Now the same for `CCc1cccc(NC(=O)Nc2ccc(Oc3ccc4nc(NC(=O)OC)[nH]c4c3)cc2)c1`
19.6 µM
